- Test system: HeLa
- Protocol notes: Cytotoxicity against human HeLa cells
- Format: functional, cell-based
One threshold, 4 mg/L, splits the recorded IC50 values: lower ones are MET, equal or higher ones are NOT MET.

Query string: hey, is IC50 for `C#C/C=C\CCCCC#CCCCCC#CCCCC#CCO` lower than 4 mg/L or not?
Result string: NOT MET

Query string: hey, is IC50 for `COc1cccc2c1C(=O)c1c(O)c3c(c(O)c1C2=O)C[C@@](O)(C(=O)CO)C[C@@H]3O[C@H]1C[C@H](N)[C@H](O)[C@H](C)O1` lower than 4 mg/L or not?
Result string: MET

Query string: hey, is IC50 for C#C/C=C\CCCCC#CC#CC#CCCC/C=C\C#CCO [DEHYDROISOPHONOCHALYNOL] lower than 4 mg/L or not?
Result string: NOT MET

Query string: hey, is IC50 for `C#C/C=C\CCCCCCC#CC#CCCC/C=C\C#CCO` lower than 4 mg/L or not?
Result string: NOT MET
